meta.source: patent US11426473B2

- target_of_assay: Integrin αvβ5 (Homo sapiens, UniProt P06756+P18084)
- Construct: purchased Chemicon International, Inc
- Sequence (P06756 31-889 limits assumed): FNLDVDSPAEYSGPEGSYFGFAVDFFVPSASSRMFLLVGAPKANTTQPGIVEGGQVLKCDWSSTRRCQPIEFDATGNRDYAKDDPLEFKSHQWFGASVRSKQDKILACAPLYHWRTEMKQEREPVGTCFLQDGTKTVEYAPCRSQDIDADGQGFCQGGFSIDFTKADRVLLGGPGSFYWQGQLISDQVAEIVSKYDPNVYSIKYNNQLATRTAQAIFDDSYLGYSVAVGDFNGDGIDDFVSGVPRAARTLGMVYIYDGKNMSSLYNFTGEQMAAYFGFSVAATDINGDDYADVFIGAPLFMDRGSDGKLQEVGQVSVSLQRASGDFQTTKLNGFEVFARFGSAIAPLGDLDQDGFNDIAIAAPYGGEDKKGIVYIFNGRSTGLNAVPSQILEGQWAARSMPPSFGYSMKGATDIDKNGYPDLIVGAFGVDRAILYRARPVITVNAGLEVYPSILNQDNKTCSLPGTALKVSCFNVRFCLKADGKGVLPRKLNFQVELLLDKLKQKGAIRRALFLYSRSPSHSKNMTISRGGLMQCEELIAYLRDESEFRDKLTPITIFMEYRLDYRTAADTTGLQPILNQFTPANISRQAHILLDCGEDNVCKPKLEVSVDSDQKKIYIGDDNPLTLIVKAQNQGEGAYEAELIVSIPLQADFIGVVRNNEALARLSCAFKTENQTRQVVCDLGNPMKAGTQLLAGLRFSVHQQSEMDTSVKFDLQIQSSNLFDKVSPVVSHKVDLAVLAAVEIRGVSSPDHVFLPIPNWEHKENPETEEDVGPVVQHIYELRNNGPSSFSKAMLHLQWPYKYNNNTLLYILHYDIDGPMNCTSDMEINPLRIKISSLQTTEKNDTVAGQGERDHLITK
- Sequence (P06756 891-1048 partner limits assumed): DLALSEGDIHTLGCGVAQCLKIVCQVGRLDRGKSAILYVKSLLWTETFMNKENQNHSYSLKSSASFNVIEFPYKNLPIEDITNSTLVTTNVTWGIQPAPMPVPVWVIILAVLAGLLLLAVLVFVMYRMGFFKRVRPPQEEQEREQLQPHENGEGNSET
- Sequence (P18084 24-799): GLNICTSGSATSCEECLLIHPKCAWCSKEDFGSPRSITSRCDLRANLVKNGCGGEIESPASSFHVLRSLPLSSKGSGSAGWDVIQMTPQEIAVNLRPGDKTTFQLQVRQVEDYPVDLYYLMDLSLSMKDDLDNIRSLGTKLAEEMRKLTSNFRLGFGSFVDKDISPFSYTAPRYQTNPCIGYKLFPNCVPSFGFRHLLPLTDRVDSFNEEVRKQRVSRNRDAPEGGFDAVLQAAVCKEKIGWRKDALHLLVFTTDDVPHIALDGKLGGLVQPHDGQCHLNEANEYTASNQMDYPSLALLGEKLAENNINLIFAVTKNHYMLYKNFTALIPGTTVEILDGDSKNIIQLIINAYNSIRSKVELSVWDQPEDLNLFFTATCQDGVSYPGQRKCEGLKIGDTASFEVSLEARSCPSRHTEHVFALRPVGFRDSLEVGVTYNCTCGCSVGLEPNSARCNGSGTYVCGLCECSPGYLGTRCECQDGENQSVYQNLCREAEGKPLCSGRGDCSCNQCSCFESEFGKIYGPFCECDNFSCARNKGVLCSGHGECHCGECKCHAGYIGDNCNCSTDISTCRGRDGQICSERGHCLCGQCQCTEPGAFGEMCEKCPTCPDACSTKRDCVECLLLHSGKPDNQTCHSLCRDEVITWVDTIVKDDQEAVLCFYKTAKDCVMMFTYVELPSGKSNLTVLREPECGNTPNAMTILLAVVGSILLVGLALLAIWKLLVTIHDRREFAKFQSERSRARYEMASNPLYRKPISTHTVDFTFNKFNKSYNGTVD
- measurement_description: Integrin αvβ5 binding affinity test
- condition_summary: inhibition of biotinylated vitronectin binding to immobilized αvβ5; read-out: IC50 value αvβ5
- Procedure: […] αvβ5 (Chemicon International, Inc.) was immobilized on each well of a 96-well plate (Corning Inc.). […] After washing with PBST, color was developed by an o-phenylenediamine (Sigma-Aldrich Inc.) solution (the reaction was terminated by the addition of 4 mol/L sulfuric acid), and the absorbance was measured (490 nm, Reference: 595 nm). The IC50 value was calculated using XLfit 3.0 (ID Business Solutions Ltd.). RGDfV (Bachem AG) was measured in duplicate as a QC sample for each plate.
Recorded IC50 by entry

// lookup IC50 for Cc1cc(OCCCC(=O)NCCNC(=O)COCCOCCNC(=O)[C@H](CS(=O)(=O)O)NC(=O)CN2CCN(CC(=O)O)CCN(CC(=O)O)CCN(CC(=O)O)CC2)cc(C)c1S(=O)(=O)N[C@@H](CNC(=O)c1ccc(CCc2ccc3c(n2)NCCC3)cc1)C(=O)O
< 1 nM

Entry under review: O=C(O)CC(c1cncc(OCCCC(=O)NCCNC(=O)[C@H](CS(=O)(=O)O)NC(=O)[C@H](CS(=O)(=O)O)NC(=O)CN2CCN(CC(=O)O)CCN(CC(=O)O)CCN(CC(=O)O)CC2)c1)n1ccc2cc(OCCc3ccc4c(n3)NCCC4)ccc21 (stereo partly drawn) . Reported IC50?
< 1 nM

Please give the measured IC50 for this molecule: Cc1cc(OCCCC(=O)NCCNC(=O)[C@H](CS(=O)(=O)O)NC(=O)CC[C@H](NC(=O)CN2CCN(CC(=O)O)CCN(CC(=O)O)CCN(CC(=O)O)CC2)C(=O)N[C@@H](CS(=O)(=O)O)C(=O)NCCNC(=O)CCCOc2cc(C)c(S(=O)(=O)N[C@@H](CNC(=O)c3ccc(CCc4cccc(N)n4)cc3)C(=O)O)c(C)c2)cc(C)c1S(=O)(=O)N[C@@H](CNC(=O)c1ccc(CCc2cccc(N)n2)cc1)C(=O)O
< 1 nM

* * *

- Test system: U87MG cells subcutaneous tumor
- measurement_description: Concentration of radioactivity in tumor of labeled compounds (Test Example 4)
- Assay type: in vivo, mouse
- condition_summary: 4 hours later, tail vein, 111In 740 kBq, 64Cu and 90Y 500 kBq
- Experimental: U87MG cells were subcutaneously transplanted at 1×10^7 cells/mouse to the right flank of Balb/cAJcl-nu/nu (CLEA Japan, Inc. or Japan SLC, Inc., 6 to 9 weeks old). […] After a given time, the animals were sacrificed to extract their tumors. The weights of the tumors were measured, and the radioactivity was measured using a gamma counter to calculate the concentration of radioactivity in the tumors (% ID/g). […]
reported_endpoint: Concentration of radioactivity in tumor (% ID/g)
Give the number; % ID/g is assumed, so skip it.

molecule | target_of_assay | Concentration of radioactivity in tumor / % ID/g
Cc1cc(OCCCC(=O)NCCNC(=O)COCCOCCNC(=O)COCCOCCNC(=O)CN2CCN(CC(=O)[O-])CCN(CC(=O)[O-])CCN(CC(=O)[O-])CC2)cc(C)c1S(=O)(=O)N[C@@H](CNC(=O)c1ccc(CCc2ccc3c(n2)NCCC3)cc1)C(=O)O.[111In+3] [[^111In]-(F3)] | U87MG cells subcutaneous tumor | 11.80

Shift focus to the following entry.
Which Concentration of radioactivity in tumor value belongs to Cc1cc(OCCCC(=O)NCCNC(=O)[C@H](CS(=O)(=O)O)NC(=O)CN2CCN(CC(=O)[O-])CCN(CC(=O)[O-])CCN(CC(=O)O)CC2)cc(C)c1S(=O)(=O)N[C@@H](CNC(=O)CCCCc1ccc2c(n1)NCCC2)C(=O)O.[64Cu+2] [[^64Cu]-(P2)] ?
9.25
